Data provenance is paper PMC10825186.

Reported kcat values follow for various proteins
Substrate: O=C(O)C=C(O)C(=O)O
Experiment: purified protein
Conditions: pH 7.5, 22 °C, 10 mM potassium phosphate, 0.3 mM NADH, malate dehydrogenase, OAA added in dry acetone
Value expressed in s⁻¹; do not type the unit.

Solved cases below.
# protein, kcat (s⁻¹)
rows = [
    ("Sc FMP41 (Saccharomyces cerevisiae S288C) (protein) MSYNYLKAARKIICIGRNYAAHIKELNNSTPKQPFFFLKPTSSIVTPLSSSLVKTTRPANSTFNGLNEDGTNPGPIFIPRGVKVHHEIELALIVSKHLSNVTKMKPEEVYDSISGVALALDLTARNVQDEAKKKGLPWTISKGFDTFMPISAIVSREKFSSYKSNLQDIFRVKCSVNGQLRQDGGTNLMLHPLHKILQHISTMISLEPGDIILTGTPAGVGELKPGDRVHCELLQNNDNIVDMNFECENRPGPYEFRET", 369),
    ("Hs FAHD2B (Homo sapiens) (protein) AAQLPVLPWSEVTFLAPVTWPDKVVCVGMNYVDHCKEQNVPVPKEPIIFSKFASSIVGPYDEVVLPPQSQEVDWEVELAVVIGKKGKHIKATDAMAHVAGFTVAHDVSARDWLTRRNGKQWLLGKTFDTFCPLGPALVTKDSVADPHNLKICCRVNGEVVQSSNTNQMVFKTEDLIAWVSQFVTFYPGDVILTGTPPGVGVFRKPPVFLKKGDEVQCEIEELGVIINKVV", 68.7),
    ("Hs FAHD1 (Homo sapiens) (protein) MGIMAASRPLSRFWEWGKNIVCVGRNYADHVREMRSAVLSEPVLFLKPSTAYAPEGSPILMPAYTRNLHHELELGVVMGKRCRAVPEAAAMDYVGGYALCLDMTARDVQDECKKKGLPWTLAKSFTASCPVSAFVPKEKIPDPHKLKLWLKVNGELRQEGETSSMIFSIPYIISYVSKIITLEEGDIILTGTPKGVGPVKENDEIEAGIHGLVSMTFKVEKPEY", 31.1),
]

Now for another entry.
Report kcat for Hs FAHD2A (Homo sapiens) (protein) AAQLPVLPRSEVTFLAPVTRPDKVVCVGMNYVDHCKEQNVPVPKEPIIFSKFASSIVGPYDEVVLPPQSQEVDWEVELAVVIGKKGKHIKATDAMAHVAGFTVAHDVSARDWQMRRNGKQWLLGKTFDTFCPLGPALVTKDSVADPHNLKICCRVNGEVVQSGNTNQMVFKTEDLIAWVSQFVTFYPGDVILTGTPPGVGVFRKPPVFLKKGDEVQCEIEELGVIINKVV please.
13.6
